# assay.summary: Food effect study: single oral Skelaxin 400 mg tablet with vs without food, healthy subjects, plasma pharmacokinetics
# Assay type: in vivo, human
# assay.setup: both sexes, human, plasma, oral, 400 mg, Treatment B: 400 mg tablet without food; read-out: Ln-Transformed AUC(last), geometric mean
outcome.measure: AUC(0-t) (ng·h/mL)
Give bare numbers, in ng·h/mL.

q: Recorded AUC(0-t) of Cc1cc(C)cc(OCC2CNC(=O)O2)c1 (stereo not shown) [metaxalone] , please.
a: 6090

====

# assay.summary: Food effect study: single oral Skelaxin 400 mg tablet with vs without food, healthy subjects, plasma pharmacokinetics
# Format: in vivo, human
# assay.setup: both sexes, human, plasma, oral, 400 mg, Treatment A: 400 mg tablet with food; read-out: Ln-Transformed AUC(inf), geometric mean
outcome.measure: AUC(0-inf) (ng·h/mL)
Numbers only, in ng·h/mL.

q: Requested field: AUC(0-inf). Item: Cc1cc(C)cc(OCC2CNC(=O)O2)c1 (stereo not shown) [metaxalone]
a: 7630

====

# assay.summary: Food effect study: single oral Skelaxin 400 mg tablet with vs without food, healthy subjects, plasma pharmacokinetics
# Assay type: in vivo, human
# assay.setup: both sexes, human, plasma, oral, 400 mg, Treatment B: 400 mg tablet without food; read-out: T1/2, least squares mean (converted)
outcome.measure: half-life
Express your answer as a number followed by its unit.

q: What does the data say about its half-life? Entry: Cc1cc(C)cc(OCC2CNC(=O)O2)c1 (stereo not shown)
a: 542 min

====

# assay.summary: Food effect study: single oral Skelaxin 400 mg tablet with vs without food, healthy subjects, plasma pharmacokinetics
# Type: in vivo, human
# assay.setup: both sexes, human, plasma, oral, 400 mg, Treatment A: 400 mg tablet with food; read-out: Ln-Transformed Cmax, geometric mean
outcome.measure: Cmax (ng/mL)
One number for each entry, in ng/mL.

q: Find the recorded Cmax belonging to Cc1cc(C)cc(OCC2CNC(=O)O2)c1 (stereo not shown) and report it.
a: 1540

====

# assay.summary: Food effect study: single oral Skelaxin 400 mg tablet with vs without food, healthy subjects, plasma pharmacokinetics
# Type: in vivo, human
# assay.setup: both sexes, human, plasma, oral, 400 mg, Treatment B: 400 mg tablet without food; read-out: AUC(inf), least squares mean
outcome.measure: AUC(0-inf) (ng·h/mL)
Answers are plain numbers, in ng·h/mL.

q: # input molecule: Cc1cc(C)cc(OCC2CNC(=O)O2)c1 (stereo not shown) [metaxalone] ; wanted: its AUC(0-inf)
a: 7480

====

# assay.summary: Food effect study: single oral Skelaxin 400 mg tablet with vs without food, healthy subjects, plasma pharmacokinetics
# Format: in vivo, human
# assay.setup: both sexes, human, plasma, oral, 400 mg, Treatment B: 400 mg tablet without food; read-out: Ln-Transformed Cmax, geometric mean
outcome.measure: Cmax (ng/mL)
Answers are plain numbers, in ng/mL.

q: Returns the measured Cmax for the input compound. Input: Cc1cc(C)cc(OCC2CNC(=O)O2)c1 (stereo not shown)
a: 865

====

# assay.summary: Food effect study: single oral Skelaxin 400 mg tablet with vs without food, healthy subjects, plasma pharmacokinetics
# Type: in vivo, human
# assay.setup: both sexes, human, plasma, oral, 400 mg, Treatment A: 400 mg tablet with food; read-out: AUC(inf), least squares mean
outcome.measure: AUC(0-inf) (ng·h/mL)
One number for each entry, in ng·h/mL.

q: Please report the recorded AUC(0-inf) for Cc1cc(C)cc(OCC2CNC(=O)O2)c1 (stereo not shown) .
a: 8540

====

# assay.summary: Food effect study: single oral Skelaxin 400 mg tablet with vs without food, healthy subjects, plasma pharmacokinetics
# Assay type: in vivo, human
# assay.setup: both sexes, human, plasma, oral, 400 mg, Treatment B: 400 mg tablet without food; read-out: Tmax, least squares mean
outcome.measure: Tmax
Field: value (include unit after the number)

q: Which Tmax reading was recorded for the compound Cc1cc(C)cc(OCC2CNC(=O)O2)c1 (stereo not shown) ?
a: 3.32 h

====

# assay.summary: Food effect study: single oral Skelaxin 400 mg tablet with vs without food, healthy subjects, plasma pharmacokinetics
# Type: in vivo, human
# assay.setup: both sexes, human, plasma, oral, 400 mg, Treatment B: 400 mg tablet without food; read-out: Ln-Transformed AUC(inf), geometric mean
outcome.measure: AUC(0-inf) (ng·h/mL)
Give bare numbers, in ng·h/mL.

q: Fill in the blank: the reported AUC(0-inf) of Cc1cc(C)cc(OCC2CNC(=O)O2)c1 (stereo not shown) is ____.
a: 6620

====

# assay.summary: Food effect study: single oral Skelaxin 400 mg tablet with vs without food, healthy subjects, plasma pharmacokinetics
# Type: in vivo, human
# assay.setup: both sexes, human, plasma, oral, 400 mg, Treatment A: 400 mg tablet with food; read-out: Cmax, least squares mean
outcome.measure: Cmax (ng/mL)
One number for each entry, in ng/mL.

q: # lookup: Cmax of Cc1cc(C)cc(OCC2CNC(=O)O2)c1 (stereo not shown) [metaxalone]
a: 1770
